# Run Description: Stability against liver microsomes
# Format: in vitro ADME, human
# Stated Conditions: 2 μM, 37° C., 24 h
// values below are reported % degradation in 24 h when incubated with liver microsomes
// units = %; emit number, no label

Molecule	Observed Value
CCc1cc(OC)ccc1-c1ccc(CC(NC(=O)[C@H](CC(=O)O)NC(=O)[C@H](CO)NC(=O)[C@@H](NC(=O)[C@H](Cc2ccccc2)NC(=O)[C@@H](NC(=O)CNC(=O)[C@H](CCC(N)=O)NC(=O)C(C)(C)NC(=O)[C@@H](N)Cc2c[nH]cn2)[C@@H](C)O)[C@@H](C)O)C(=O)NC(Cc2ccc(-c3ccccc3C)cc2)C(N)=O)cc1 (single isomer, unassigned)	86
CCc1cc(OC)ccc1-c1ccc(CC(NC(=O)[C@H](CC(=O)O)NC(=O)[C@H](CO)NC(=O)[C@@H](NC(=O)C(C)(Cc2ccccc2F)NC(=O)[C@@H](NC(=O)CNC(=O)[C@H](CCC(N)=O)NC(=O)[C@H](CO)NC(=O)[C@@H](N)Cc2c[nH]cn2)[C@@H](C)O)[C@@H](C)O)C(=O)NC(Cc2ccc(-c3ccccc3C)cc2)C(N)=O)cc1 (single isomer, unassigned)	79

Report % degradation in 24 h when incubated with liver microsomes for CCc1cc(OC)ccc1-c1ccc(CC(NC(=O)[C@H](CC(=O)O)NC(=O)[C@H](CO)NC(=O)[C@@H](NC(=O)[C@H](Cc2ccccc2)NC(=O)[C@@H](NC(=O)CNC(=O)[C@H](CCC(N)=O)NC(=O)[C@H](CO)NC(=O)[C@@H](N)Cc2c[nH]cn2)[C@@H](C)O)[C@@H](C)O)C(=O)NC(Cc2ccc(-c3ccccc3C)cc2)C(N)=O)cc1 (single isomer, unassigned) 100

Report % degradation in 24 h when incubated with liver microsomes for CCc1cc(OC)ccc1-c1ccc(CC(NC(=O)[C@H](CC(=O)O)NC(=O)[C@H](CO)NC(=O)[C@@H](NC(=O)[C@H](Cc2ccccc2)NC(=O)[C@@H](NC(=O)CNC(=O)[C@H](CCC(N)=O)NC(=O)C(C)(C)NC(=O)[C@@H](N)Cc2c[nH]cn2)[C@@H](C)O)[C@@H](C)O)C(=O)NC(Cc2ccc(-c3ccccc3C)nc2)C(N)=O)cc1 (single isomer, unassigned) 84

Report % degradation in 24 h when incubated with liver microsomes for CCc1cc(OC)ccc1-c1ccc(CC(NC(=O)[C@H](CC(=O)O)NC(=O)[C@H](CO)NC(=O)[C@@H](NC(=O)C(C)(Cc2ccccc2F)NC(=O)[C@@H](NC(=O)CNC(=O)[C@H](CCC(N)=O)NC(=O)[C@H](CO)NC(=O)[C@@H](N)Cc2c[nH]cn2)[C@@H](C)O)[C@@H](C)O)C(=O)NC(Cc2ccc(-c3ccccc3C(F)(F)F)cc2)C(N)=O)cc1 (single isomer, unassigned) 80
